meta.source: patent EP4386000A1

Molecular target: T1, human CD25 (NP_000408.1) (Met 1-Cys 213) C-terminally fused with 6-histidine tag (human, UniProt P01589 22-213)
T1 construct: range 1-213; Expressed in CHO-K1 cells; also called human CD25-his
T1 sequence: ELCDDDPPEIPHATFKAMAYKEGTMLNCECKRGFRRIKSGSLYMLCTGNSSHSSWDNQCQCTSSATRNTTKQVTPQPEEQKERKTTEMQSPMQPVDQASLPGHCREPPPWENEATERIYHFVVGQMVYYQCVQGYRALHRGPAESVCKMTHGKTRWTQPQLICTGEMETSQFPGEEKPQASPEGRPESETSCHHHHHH
Test: SPR (BIAcore X100), human CD25-his captured by anti-histidine antibody, antibody as analyte, 1:1 model
endpointName: kon (M⁻¹ s⁻¹)
Just the number please, in M⁻¹ s⁻¹, no unit attached.

{"columns": ["binder", "kon (M⁻¹ s⁻¹)"],
 "data": [
  ["chimeric antibody 2046-111H2L1 (antibody, human IgG1, kappa, V domains shown, Chimeric, human IgG1/kappa) VH: DVQLQESGPGLVKPSQSLSLTCTVTGHSITSDYAWNWIRQFPGNKLEWMGYISYSGSTIYNPSLKSRISITRDTSKNQFFLQLNSVTTEDTATYYCARWLLQNYYAMDYWGQGTSVTVSS VL: DVVMTQTPLSLPVSLGDQASISCRSSQSLVHSNGNTYLHWYLRKPGQSPKLLIYKVSNRFSGVPDRFSGSGSGTDFTLKISRVEAEDLGVYFCSQSTHVPLTFGAGTKLELKR", 526000]
]}

Please turn your attention to the following entry.
q: Record request: kon value, item chimeric antibody 2046-18H1L1 (antibody, human IgG1, kappa, V domains shown, Chimeric, human IgG1/kappa; also called 2046-18ix) VH: DVQLQESGPGLVKPSQSLSLTCTVTGYSITSDYAWNWIRQFPGNKLEWMGYISYSGITIYNPSLKSRISITRDTSKNQFFLQLNSVTTEDTATYYCARWLLQIYYAMDYWGQGTSVTVSS VL: DVVMTQTPLSLPVSLGDQASISCSSSQSLVHSNGNTYLHWYLHKPGQSPKLLIYKVSNRFSGVPDRFSGSGSGTDFTLKISRVEAEDLGVYFCSQSTHVPLTFGAGTKLELKR
a: 463000
